Assay read-out pIC50; system under study: MMP-10 (Homo sapiens).
Sequence (P09238 99-476): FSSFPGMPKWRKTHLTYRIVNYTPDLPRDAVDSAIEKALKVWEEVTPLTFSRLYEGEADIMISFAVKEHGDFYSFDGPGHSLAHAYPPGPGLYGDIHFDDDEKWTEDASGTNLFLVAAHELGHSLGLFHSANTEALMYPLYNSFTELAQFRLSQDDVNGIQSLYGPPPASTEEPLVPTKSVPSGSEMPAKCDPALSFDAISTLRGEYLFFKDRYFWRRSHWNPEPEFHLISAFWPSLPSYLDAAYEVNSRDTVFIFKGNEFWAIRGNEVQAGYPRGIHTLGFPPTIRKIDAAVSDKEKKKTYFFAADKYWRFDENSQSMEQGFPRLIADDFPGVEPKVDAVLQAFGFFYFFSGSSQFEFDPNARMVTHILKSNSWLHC
pIC50: −log10 of the molar value.
Property Measured: pIC50

Any idea what pIC50 was measured for O=C(O)[C@H]1[C@H](Cn2nnc3ccccc3c2=O)CC[C@@H]1C(=O)c1ccc(OCCC2CCCCC2)cc1 (racemic) ?
7.03

Any idea what pIC50 was measured for Cc1cccc(COc2ccc(C(=O)[C@H]3CC[C@@H](Cn4nnc5ccc(C)cc5c4=O)[C@@H]3C(=O)O)cc2)c1 (racemic) ?
6.80

Any idea what pIC50 was measured for Cc1ccc2nnn(C[C@H]3CC[C@@H](C(=O)c4ccc(OCc5cccc(C(F)(F)F)c5)cc4)[C@@H]3C(=O)O)c(=O)c2c1 (single isomer, unassigned) ?
6.96

---

Assay read-out IC50; system under study: MMP-16 (Homo sapiens).
Sequence (P51512 120-564 limits assumed): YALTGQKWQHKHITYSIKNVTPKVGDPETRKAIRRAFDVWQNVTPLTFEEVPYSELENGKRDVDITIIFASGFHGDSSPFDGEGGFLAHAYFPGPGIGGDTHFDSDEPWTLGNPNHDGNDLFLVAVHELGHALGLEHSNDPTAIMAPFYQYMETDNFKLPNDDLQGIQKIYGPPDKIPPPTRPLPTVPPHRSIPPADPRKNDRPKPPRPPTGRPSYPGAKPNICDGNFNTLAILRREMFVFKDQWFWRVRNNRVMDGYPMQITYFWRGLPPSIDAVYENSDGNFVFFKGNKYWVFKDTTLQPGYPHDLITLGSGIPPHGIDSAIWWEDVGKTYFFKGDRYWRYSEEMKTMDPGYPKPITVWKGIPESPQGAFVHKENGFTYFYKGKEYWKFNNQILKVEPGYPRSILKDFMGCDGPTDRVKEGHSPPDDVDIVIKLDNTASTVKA
Property Measured: IC50 (nM)

Example entries and their recorded answers appear below.
Any idea what IC50 was measured for Cc1ccc2nnn(C[C@H]3CC[C@@H](C(=O)c4ccc(OCc5cccc(Cl)c5)cc4)[C@@H]3C(=O)O)c(=O)c2c1 (single isomer, unassigned) [Example 104] ?
540

Any idea what IC50 was measured for CCCCCSc1ccc(C(=O)[C@H]2CC[C@@H](Cn3nnc4ccc(C(F)(F)F)cc4c3=O)[C@@H]2C(=O)O)cc1 (racemic) [Example 88] ?
670

Any idea what IC50 was measured for O=C(O)[C@H]1[C@H](Cn2nnc3ccc(C(F)(F)F)cc3c2=O)CC[C@@H]1C(=O)c1ccc(OCC2CCCCC2)cc1 (racemic) [Example 40] ?
920

P = Cc1cccc(COc2ccc(C(=O)[C@H]3CC[C@@H](Cn4nnc5ccc(C)cc5c4=O)[C@@H]3C(=O)O)cc2)c1 (racemic) [Example 97]
Q = Cc1cccc(COc2ccc(C(=O)[C@@H]3CC[C@H](Cn4nnc5ccc(C)cc5c4=O)[C@H]3C(=O)O)cc2)c1 (single isomer, unassigned) [Example 98]
R = Cc1ccc2nnn(C[C@@H]3CC[C@H](C(=O)c4ccc(OCc5ccccc5)cc4)[C@H]3C(=O)O)c(=O)c2c1 (racemic) [Example 91]
Rank ascending by IC50. The response must list the labels following the requested ordering.
Q, R, P
(Q: 670 nM, R: 1700 nM, P: 4500 nM)

---

# Assayed System: MMP-8 (Homo sapiens, UniProt P22894)
# Sequence (P22894 101-467): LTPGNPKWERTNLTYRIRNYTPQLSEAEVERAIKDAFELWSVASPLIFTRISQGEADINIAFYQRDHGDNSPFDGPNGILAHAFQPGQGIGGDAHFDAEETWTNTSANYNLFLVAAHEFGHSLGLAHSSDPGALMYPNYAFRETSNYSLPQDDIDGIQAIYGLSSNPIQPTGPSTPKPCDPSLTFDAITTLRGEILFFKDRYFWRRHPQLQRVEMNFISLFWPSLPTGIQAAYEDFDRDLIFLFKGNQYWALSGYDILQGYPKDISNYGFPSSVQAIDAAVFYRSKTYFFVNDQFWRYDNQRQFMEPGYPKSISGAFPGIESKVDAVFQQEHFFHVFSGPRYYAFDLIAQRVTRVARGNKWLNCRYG
pIC50: −log10 of the molar value.
Property Measured: pIC50

Example entries and their recorded answers appear below.
Requested read-out pIC50, target or system MMP-8 (Homo sapiens, UniProt P22894), entry O=C(O)[C@H]1[C@H](Cn2nnc3ccccc3c2=O)CC[C@@H]1C(=O)c1ccc(OCC2CCCC2)cc1 (racemic) [Example 4]
7.85

Requested read-out pIC50, target or system MMP-8 (Homo sapiens, UniProt P22894), entry O=C(O)[C@@H]1[C@@H](Cn2nnc3ccc(C(F)(F)F)cc3c2=O)CC[C@H]1C(=O)c1ccc(SCc2cccc(Cl)c2)cc1 (single isomer, unassigned) [Example 77]
7.39

a = Cc1ccc2nnn(C[C@H]3CC[C@@H](C(=O)c4ccc(OCc5ccccc5)cc4)[C@@H]3C(=O)O)c(=O)c2c1 (single isomer, unassigned) [Example 92]
b = CCCCCCOc1ccc(C(=O)[C@@H]2CC[C@H](Cn3nnc4ccc(C(F)(F)F)cc4c3=O)[C@H]2C(=O)O)cc1 (single isomer, unassigned) [Example 58]
Compare a and b and name the one whose reported pIC50 is smaller. # respond with the chosen item's label
b
(b: 7.80, a: 8.62)

I = COc1cccc(COc2ccc(C(=O)[C@H]3CC[C@@H](Cn4nnc5ccc(C)cc5c4=O)[C@@H]3C(=O)O)cc2)c1 (racemic) [Example 106]
II = Cc1ccc2nnn(C[C@@H]3CC[C@H](C(=O)c4ccc(OCc5ccccc5)cc4)[C@H]3C(=O)O)c(=O)c2c1 (racemic) [Example 91]
Compare I and II and name the one whose reported pIC50 is smaller. # respond with the chosen item's label
I
